targetEntity: EGLN1
assayOverview: cell-based or functional assay
Where no end group is shown, it is not given here.
Rule: Activity (%)* below 20% gives true (1). Equal to or above 20% gives false (0).

Take a look at these entries with their results.
binder	assignedLabel
DTDLDVEAVAPYIPADDDFQ (not fully specified; printed as DTDLDVEAVApYIPADDDFQ) [DTDLDVEAVApYIPADDDFQ]	false (0)
DTDLDLEAQAPYIPADDDFQ [DTDLDLEAQApYIPADDDFQ]	false (0)
DTDLDLEAHAPYIPADDDFQ [DTDLDLEAHApYIPADDDFQ]	false (0)
DTDLDTEAVAPYIPADDDFQ (not fully specified; printed as DTDLDTEAVApYIPADDDFQ) [DTDLDTEAVApYIPADDDFQ]	true (1)

# input Dear colleague, could you confirm whether Activity (%)* of DTDLDTEATAPYIPADDDFQ (not fully specified; printed as DTDLDTEATApYIPADDDFQ) [DTDLDTEATApYIPADDDFQ] falls below 20%? Thanks.
# output false (0)

Where do these numbers come from? They come from patent US20080113383A1.
